# target: recombinant TASK-3 (Homo sapiens (Human))
# procedure summary: Inhibition of recombinant TASK-3 in stably transfected CHO cells (KCl-induced depolarization, voltage-sensitive dye, FLIPR)
# Assay type: cell-based
# study conditions: depolarization induced by 40 mM potassium chloride, some mean values from multiple determinations
Record form. Attribute: log10(IC50). Fill in for each entry.
Hello, just confirming the data are log10 of IC50 with units of µM.

Ask: // returns reported log10(IC50) for input O=C(c1ccccc1F)N1C2CCC1CN(Cc1c(-c3ccc(Cl)cc3)nc3ncccn13)CC2 (single isomer, unassigned) [Example 80]
Reply: -1.03

Ask: // returns reported log10(IC50) for input CC(C)c1ccc(-c2nc3ncccn3c2CN2CC3CCC2CCN3C(=O)c2ccccc2F)cc1 (stereo not shown) [Example 47]
Reply: -0.74

Ask: // returns reported log10(IC50) for input COc1cccc(C(=O)N2CCC3CCC2CN3Cc2c(-c3ccc(C(C)C)cc3)nc3ncccn23)n1 (stereo not shown) [Example 48]
Reply: -0.37

Ask: // returns reported log10(IC50) for input COc1ccc(F)c(C(=O)N2CCC3CCC(C2)N3Cc2c(-c3ccc(C(C)C)cc3)nc3ncccn23)n1 (stereo not shown) [Example 53]
Reply: -0.42

Ask: // returns reported log10(IC50) for input COc1ccc(Cl)c(C(=O)N2CCC3CCC(C2)N3Cc2c(-c3ccc(C(C)C)cc3)nc3ncccn23)n1 (stereo not shown) [Example 59]
Reply: -0.17

Ask: // returns reported log10(IC50) for input COc1ccc(F)c(C(=O)N2C3CCC2CN(Cc2c(-c4ccc(Cl)cc4)nc4ccccn24)CC3)n1 (single isomer, unassigned) [Example 79]
Reply: -1.96

Ask: // returns reported log10(IC50) for input CC(C)c1ccc(-c2nc3ncccn3c2CN2CC3CCC2CCN3C(=O)c2cccc(OC(F)F)n2)cc1 (stereo not shown) [Example 51]
Reply: -0.96

* * *

# target: recombinant TASK-3 (Homo sapiens (Human), UniProt Q9NPC2)
# Sequence (Q9NPC2 whole entry): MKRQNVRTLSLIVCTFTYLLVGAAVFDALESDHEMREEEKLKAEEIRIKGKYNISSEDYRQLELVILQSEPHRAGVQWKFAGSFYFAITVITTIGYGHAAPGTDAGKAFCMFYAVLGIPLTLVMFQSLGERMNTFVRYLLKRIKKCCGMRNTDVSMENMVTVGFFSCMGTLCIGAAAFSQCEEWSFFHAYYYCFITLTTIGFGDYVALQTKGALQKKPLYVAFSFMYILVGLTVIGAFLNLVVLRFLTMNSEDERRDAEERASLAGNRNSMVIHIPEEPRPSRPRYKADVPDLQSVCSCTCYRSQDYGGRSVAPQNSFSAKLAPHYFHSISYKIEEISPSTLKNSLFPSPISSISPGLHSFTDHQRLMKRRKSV
# procedure summary: Inhibition of recombinant TASK-3 in stably transfected CHO cells (KCl-induced depolarization, voltage-sensitive dye, FLIPR)
# Type: cell-based
# study conditions: depolarization induced by 40 mM potassium chloride, some mean values from multiple determinations
pIC50: −log10 of the molar value.
Cut-off 7 on pIC50, inclusive. At or above means true (1); below means false (0).

Ask: Please check the record CC(C)c1ccc(-c2nc3ncccn3c2CN2CC3CCC2CCN3C(=O)c2cccc(OC(F)F)n2)cc1 (stereo not shown) [Example 45] and state if its pIC50 is at or above 7.
Reply: false (0)

Ask: Please check the record O=C(c1ccccc1F)N1CCC2CCC1CN2Cc1c(-c2ccc(Cl)cc2)nc2ncccn12 (stereo not shown) [Example 25] and state if its pIC50 is at or above 7.
Reply: true (1)

Ask: Please check the record COc1ccc(F)c(C(=O)N2CCC3CCC(C2)N3Cc2c(-c3ccc(C(C)C)cc3)nc3ncccn23)n1 (stereo not shown) [Example 58] and state if its pIC50 is at or above 7.
Reply: false (0)

Ask: Please check the record COc1ccc(F)c(C(=O)N2CCC3CCC2CN3Cc2c(-c3ccc(C(C)C)cc3)nc3ncccn23)n1 (stereo not shown) and state if its pIC50 is at or above 7.
Reply: false (0)

* * *

# target: recombinant TASK-3 (Homo sapiens (Human))
# procedure summary: Inhibition of recombinant TASK-3 in stably transfected CHO cells (KCl-induced depolarization, voltage-sensitive dye, FLIPR)
# Assay type: cell-based
# study conditions: depolarization induced by 40 mM potassium chloride, some mean values from multiple determinations
Define the label as rule met when IC50 is strictly less than 300 nM and as rule not met in all remaining cases.

Ask: Threshold test, IC50 < 300 nM: COc1ccc(Cl)c(C(=O)N2CCC3CCC2CN3Cc2c(-c3ccc(Cl)cc3)nc3ccccn23)n1 (stereo not shown) [Example 28]
Reply: rule met

Ask: Threshold test, IC50 < 300 nM: COc1ccc(Cl)c(C(=O)N2CCC3CCC(C2)N3Cc2c(-c3ccc(C(C)C)cc3)nc3ncccn23)n1 (stereo not shown) [Example 54]
Reply: rule met

Ask: Threshold test, IC50 < 300 nM: O=C(c1cccc(OC(F)F)n1)N1CCC2CCC1CN2Cc1c(-c2ccc(Cl)cc2)nc2ncccn12 (stereo not shown) [Example 68]
Reply: rule met

Ask: Threshold test, IC50 < 300 nM: COc1cccc(C(=O)N2C3CCC2CN(Cc2c(-c4ccc(C(C)C)cc4)nc4ncccn24)CC3)n1 (stereo not shown) [Example 105]
Reply: rule not met

Ask: Threshold test, IC50 < 300 nM: COc1ccc(F)c(C(=O)N2C3CCC2CN(Cc2c(-c4ccc(Cl)cc4)nc4ncccn24)CC3)n1 (single isomer, unassigned) [Example 83]
Reply: rule met

Ask: Threshold test, IC50 < 300 nM: COc1ccc(F)c(C(=O)N2CCC3CCC2CN3Cc2c(-c3ccc(Cl)cc3)nc3ccccn23)n1 (stereo not shown) [Example 27]
Reply: rule met

Ask: Threshold test, IC50 < 300 nM: CC(C)c1ccc(-c2nc3ncccn3c2CN2CC3CCC2CCN3C(=O)c2ccccc2F)cc1 (stereo not shown) [Example 46]
Reply: rule not met
